Test system: MAP3K15
conditions.used: concentration: 1 μM, replicates: in singlicate; n = 1
For each entry below, report its %Inh value.
Entry rule: numbers only, all in %.

INPUT: Item: Clc1ccc(-c2nn3ncccc3c2-c2ccnc(Nc3ccc4c(c3)OCCO4)n2)cc1 Test system: MAP3K15 Read-out: %Inh Value: ?;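 further: KINOMEscan kinase panel screen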
OUTPUT: 0

INPUT: Note, next up: C[C@@H](Oc1cc(-n2cnc3cc(-c4ccnc(NCCS(C)(=O)=O)c4)ccc32)sc1C(N)=O)c1ccccc1Cl
OUTPUT: 6

INPUT: Note, next up: Fc1ccc(-c2ncn(C3CCNCC3)c2-c2ccnc(Oc3ccc(-c4ccccc4)cc3)n2)cc1
OUTPUT: 22

INPUT: Note, next up: CN(C)S(=O)(=O)c1cc(-c2ccc3nccc(-c4cccc(S(N)(=O)=O)c4)c3c2)cnc1N
OUTPUT: 23

INPUT: Note, next up: COc1cc(Nc2nccc(N3CCC(NC(=O)c4cc5ccccc5s4)C3)n2)cc(OC)c1OC (stereo not shown)
OUTPUT: 0

INPUT: Note, next up: Cc1occc1-c1ncc(OC[C@@H](N)Cc2c[nH]c3ccccc23)cc1-c1ccc2[nH]nc(C)c2c1.O=C(O)C(F)(F)F
OUTPUT: 10

INPUT: Note, next up: Cc1ccc(C(=O)Nc2ccc(Nc3ccnc4cc(-c5nccs5)ccc34)cc2O)cc1.Cl
OUTPUT: 16
